- subject-of-test: SHV-5 β-lactamase (Klebsiella pneumoniae)
- Construct: expressed as native untagged proteins; made in house; host or cells: E. coli BL21(DE3)
- assay-comment: β-lactamase enzyme inhibition assay (nitrocefin substrate), SHV-5
- Format: biochemical
Counter-ions that a name gives are not always drawn.
property-measured: log10 IC50 (log10 of the value in nM)
Heads up: the numbers are on a log10 scale; they represent IC50 in nM.

Consider N=C(N)NCc1cc(CC(=O)N[C@@H](Cc2cccc(C(=O)O)c2O)B(O)O)ccn1 [Example 64, formate] . Its measured log10 IC50 is 0.48

Consider O=C(Cc1ccc(CN(CCO)CCO)cc1)N[C@@H](Cc1cccc(C(=O)O)c1O)B(O)O . Its measured log10 IC50 is 2.99

Consider O=C(N[C@@H](Cc1cccc(C(=O)O)c1O)B(O)O)c1cccc(CNCc2cccnc2)c1 . Its measured log10 IC50 is 1.73

Consider CC/C(=N/O)C(=O)N[C@@H](Cc1cccc(C(=O)O)c1O)B(O)O . Its measured log10 IC50 is 2.08

Consider C/C(=N/O)C(=O)N[C@@H](Cc1cccc(C(=O)O)c1O)B(O)O . Its measured log10 IC50 is 1.68

Consider O=C(Cc1ccc(CNCCO)cc1)N[C@@H](Cc1cccc(C(=O)O)c1O)B(O)O . Its measured log10 IC50 is 0.70

###

- System: E. cloacae expressing the Class C P99+
- assay-comment: In vitro antibacterial assay of β-lactamase inhibition (broth microdilution MIC), E. cloacae P99+
- Assay type: cell-based
- experimental-conditions: in presence of Ceftazidime 8 μg/ml (Examples 1-56)
Consider the following molecules; for each one, report its MIC of example compound, E. cloacae P99+.
Record the value in mg/L, omitting the unit from your answer.

Consider O=C(Cc1ccc(CN2CCNCC2)cc1)N[C@@H](Cc1cccc(C(=O)O)c1O)B(O)O [Example 37] . Its measured MIC of example compound, E. cloacae P99+ is 2

Consider CC/C(=N/O)C(=O)N[C@@H](Cc1cccc(C(=O)O)c1O)B(O)O [Example 55] . Its measured MIC of example compound, E. cloacae P99+ is 1

Consider CC(=O)Nc1ccc(C(=O)N[C@@H](Cc2cccc(C(=O)O)c2O)B(O)O)cn1 [Example 10] . Its measured MIC of example compound, E. cloacae P99+ is 0.5

Consider Cl.NCc1ccc(C(=O)N[C@@H](Cc2cccc(C(=O)O)c2O)B(O)O)cc1 [Example 2] . Its measured MIC of example compound, E. cloacae P99+ is 0.25

Consider Cl.Nc1cncc(C(=O)N[C@@H](Cc2cccc(C(=O)O)c2O)B(O)O)c1 [Example 44] . Its measured MIC of example compound, E. cloacae P99+ is 1

Consider Cc1cc(NCc2cccc(C(=O)N[C@@H](Cc3cccc(C(=O)O)c3O)B(O)O)c2)no1 [Example 28] . Its measured MIC of example compound, E. cloacae P99+ is 2

###

Consider the following compounds; for each one, report its IC50.
- subject-of-test: CTX-M15 β-lactamase (Escherichia coli)
- Construct: expressed as native untagged proteins; made in house; host or cells: E. coli BL21(DE3)
- Sequence (Q9EXV5 entry or part of it): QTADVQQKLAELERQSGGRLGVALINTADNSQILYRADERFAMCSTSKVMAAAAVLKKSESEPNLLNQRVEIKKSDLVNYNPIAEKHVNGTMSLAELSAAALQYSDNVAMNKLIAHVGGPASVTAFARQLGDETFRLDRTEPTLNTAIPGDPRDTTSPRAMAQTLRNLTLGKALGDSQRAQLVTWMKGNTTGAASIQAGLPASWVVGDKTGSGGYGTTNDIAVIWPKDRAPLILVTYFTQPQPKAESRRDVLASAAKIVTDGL
- assay-comment: β-lactamase enzyme inhibition assay (nitrocefin substrate), CTXM-15
- Assay type: biochemical
Structures can show the parent of a compound that is named as a salt.
Record the value in nM, omitting the unit from your answer.

Consider CC/C(=N/O)C(=O)N[C@@H](Cc1cccc(C(=O)O)c1O)B(O)O . Its measured IC50 is 1

Consider O=C(N[C@@H](Cc1cccc(C(=O)O)c1O)B(O)O)c1ccc(CN2CCOCC2)cc1 . Its measured IC50 is 4

Consider Cc1cc(NCc2cccc(C(=O)N[C@@H](Cc3cccc(C(=O)O)c3O)B(O)O)c2)no1 . Its measured IC50 is 0.7

Consider O=C(Cc1ccc(CN(CCO)CCO)cc1)N[C@@H](Cc1cccc(C(=O)O)c1O)B(O)O . Its measured IC50 is 4

Consider NCc1ccc(CC(=O)N[C@@H](Cc2cccc(C(=O)O)c2O)B(O)O)cc1 . Its measured IC50 is 7

Consider CN(C)Cc1ccc(C(=O)N[C@@H](Cc2cccc(C(=O)O)c2O)B(O)O)cc1 [Example 4, formate salt] . Its measured IC50 is 3

Consider O=C(Cc1ccc(CN2CCCC2)cc1)N[C@@H](Cc1cccc(C(=O)O)c1O)B(O)O . Its measured IC50 is 3

Consider C/C(=N/O)C(=O)N[C@@H](Cc1cccc(C(=O)O)c1O)B(O)O . Its measured IC50 is 5

###

- subject-of-test: KPC-2 β-lactamase (Klebsiella pneumoniae, UniProt Q9F663)
- Construct: expressed as native untagged proteins; made in house; host or cells: E. coli BL21(DE3)
- Sequence (Q9F663 25-293 limits assumed): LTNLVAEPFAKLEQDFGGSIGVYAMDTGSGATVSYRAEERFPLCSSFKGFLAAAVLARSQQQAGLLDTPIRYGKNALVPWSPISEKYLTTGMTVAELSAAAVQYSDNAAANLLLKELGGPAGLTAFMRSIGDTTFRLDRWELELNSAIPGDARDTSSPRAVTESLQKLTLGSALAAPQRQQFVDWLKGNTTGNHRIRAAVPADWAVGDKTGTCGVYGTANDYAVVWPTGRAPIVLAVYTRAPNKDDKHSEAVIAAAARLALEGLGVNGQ
- assay-comment: β-lactamase enzyme inhibition assay (nitrocefin substrate), KPC-2
- Assay type: biochemical
Counter-ions that a name gives are not always drawn.
property-measured: pIC50
FYI, pIC50 means -log10 of a concentration in mol per litre.

Consider O=C(N[C@@H](Cc1cccc(C(=O)O)c1O)B(O)O)c1cccc(CNCCCO)c1 . Its measured pIC50 is 7.70

Consider Cl.NCc1ccc(C(=O)N[C@@H](Cc2cccc(C(=O)O)c2O)B(O)O)cc1 [Example 2, hydrochloride] . Its measured pIC50 is 7.89

Consider Cl.O=C(N[C@@H](Cc1cccc(C(=O)O)c1O)B(O)O)c1ccc(N2CCNCC2)nc1 [Example 9, hydrochloride] . Its measured pIC50 is 8.22

Consider O=C(N[C@@H](Cc1cccc(C(=O)O)c1O)B(O)O)c1cccc(CNCc2cccnc2)c1 . Its measured pIC50 is 8.22

Consider Cl.O=C(N[C@@H](Cc1cccc(C(=O)O)c1O)B(O)O)c1ccc(CNCc2cccnc2)cc1 [Example 17, hydrochloride] . Its measured pIC50 is 7.82

Consider C/C(=N/O)C(=O)N[C@@H](Cc1cccc(C(=O)O)c1O)B(O)O . Its measured pIC50 is 8.00

Consider Nc1cccc[n+]1Cc1ccc(CC(=O)N[C@@H](Cc2cccc(C(=O)O)c2O)B(O)O)cc1 . Its measured pIC50 is 6.19

Consider O=C(N[C@@H](Cc1cccc(C(=O)O)c1O)B(O)O)c1ccc(C[n+]2ccccc2)cc1 . Its measured pIC50 is 7.68

Consider CC/C(=N/O)C(=O)N[C@@H](Cc1cccc(C(=O)O)c1O)B(O)O . Its measured pIC50 is 8.22

Consider NCc1ccc(/C(=N/O)C(=O)N[C@@H](Cc2cccc(C(=O)O)c2O)B(O)O)cc1 [Example 53, hydrochloride] . Its measured pIC50 is 7.41

Consider Br.CC(C)(O/N=C(\C(=O)N[C@@H](Cc1cccc(C(=O)O)c1O)B(O)O)c1csc(N)n1)C(=O)O [Example 48, hydrobromide] . Its measured pIC50 is 7.15

Consider Cl.Nc1nc(/C(=N/O)C(=O)N[C@@H](Cc2cccc(C(=O)O)c2O)B(O)O)cs1 [Example 49, hydrochloride] . Its measured pIC50 is 7.47

Consider Cl.Nc1ccc(C(=O)N[C@@H](Cc2cccc(C(=O)O)c2O)B(O)O)cn1 [Example 7, formate salt] . Its measured pIC50 is 8.40

Consider N=C(N)NCCC[C@H](NCc1ccc(CC(=O)N[C@@H](Cc2cccc(C(=O)O)c2O)B(O)O)cc1)C(=O)O . Its measured pIC50 is 7.82

Consider Cl.NCCNCc1ccc(C(=O)N[C@@H](Cc2cccc(C(=O)O)c2O)B(O)O)cc1 [Example 15, hydrochloride] . Its measured pIC50 is 7.74

###

- subject-of-test: SHV-5 β-lactamase (Klebsiella pneumoniae, UniProt P0A3M1)
- Construct: expressed as native untagged proteins; made in house; host or cells: E. coli BL21(DE3)
- Sequence (P0A3M1 22-286): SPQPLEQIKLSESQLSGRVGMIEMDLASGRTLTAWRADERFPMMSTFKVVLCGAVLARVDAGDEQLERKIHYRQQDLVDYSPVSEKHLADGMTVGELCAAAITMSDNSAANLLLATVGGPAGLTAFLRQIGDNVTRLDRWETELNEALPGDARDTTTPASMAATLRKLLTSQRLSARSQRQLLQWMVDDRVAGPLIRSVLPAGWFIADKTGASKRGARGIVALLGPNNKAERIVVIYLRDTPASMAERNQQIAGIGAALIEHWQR
- assay-comment: β-lactamase enzyme inhibition assay (nitrocefin substrate), SHV-5
- Type: biochemical
Consider the following compounds; for each one, report its IC50.
Record the value in nM, omitting the unit from your answer.

Consider CCC(=O)C(=O)N[C@@H](Cc1cccc(C(=O)O)c1O)B(O)O [Example 56] . Its measured IC50 is 195

Consider Cl.O=C(N[C@@H](Cc1cccc(C(=O)O)c1O)B(O)O)c1ccc(CN2CCCC(C(=O)O)C2)cc1 (stereo partly shown) [Example 12, hydrochloride] . Its measured IC50 is 870

Consider O=C(N[C@@H](Cc1cccc(C(=O)O)c1O)B(O)O)c1ccc(CN2CCOCC2)cc1 [Example 3] . Its measured IC50 is 367

Consider O=C(N[C@@H](Cc1cccc(C(=O)O)c1O)B(O)O)c1cccc(CNCCCO)c1 [Example 25] . Its measured IC50 is 580

Consider CC(C)(O/N=C(\C(=O)N[C@@H](Cc1cccc(C(=O)O)c1O)B(O)O)c1csc(NC(=O)CN)n1)C(=O)O.Cl [Example 50, hydrochloride] . Its measured IC50 is 24

Consider O=C(Cc1ccc(CNC(CO)C(=O)O)cc1)N[C@@H](Cc1cccc(C(=O)O)c1O)B(O)O (stereo partly shown) [Example 60] . Its measured IC50 is 2
